assay: NCI Yeast Anticancer Drug Screen. Data for the sgs1 mgt1 strain (AID 161);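 also: 0% = growth of cultures given vehicle only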; settings: S. cerevisiae sgs1 mgt1 strain, at 50.0 µM (retest, dose inferred, filed as 5.0), stronger effect = higher value
The panel holds about 79,000 compounds, 15% with a hit somewhere; the sample as a whole holds those more often.
Give growth inhibition for every item shown.
One number for each entry, in %.

Examples from the recorded data:
- COMPOUND: "CN(C)CCNC(=O)c1cccc2nc3c4ccccc4c4ccccc4c3nc12"
  growth inhibition, %: 97
- COMPOUND: "[Cl][Pt+2][Cl].[NH-]CC1(C[NH-])CCCCC1"
  growth inhibition, %: 100
- COMPOUND: "N=c1oc2ccccc2cc1-c1nc2ccccc2[nH]1"
  growth inhibition, %: 62
- COMPOUND: "O=C1c2ccc(O)cc2C(=O)c2c(O)ccc(O)c21"
  growth inhibition, %: 90
- COMPOUND: "O=C1c2ccccc2C2CCC1c1ccccc12 (stereo unspecified)"
  growth inhibition, %: -7

Would you kindly look at the next entry?
Give the measured growth inhibition for O=C1C(C(O)(C(F)(F)F)C(F)(F)F)CCC1C(O)(C(F)(F)F)C(F)(F)F (stereo unspecified)
54

###

experiment: NCI Yeast Anticancer Drug Screen. Data for the mec2-1 strain (AID 157); conditions: S. cerevisiae mec2-1 strain, at 11.0 µM, stronger effect = higher value
About 79,000 compounds went through this panel and 15% of them were active in at least one assay; those are over-represented in the sample as a whole.
EXPERIMENTAL READOUT: growth inhibition (%)
Numbers only, in %.

- MOLECULE: "CCCCCCC(CCl)c1sc(-c2csc(CCNC(=O)OC(C)(C)C)n2)nc1C(=O)OC (stereo unspecified)"
  RECORDED MEASUREMENT: 0
- MOLECULE: "Cc1ccccc1C1=C(CC(=O)O)c2ccccc2CC1C (stereo unspecified)"
  RECORDED MEASUREMENT: 49
- MOLECULE: "CNc1ccc2[nH]c3ccccc3c2c1"
  RECORDED MEASUREMENT: 0
- MOLECULE: "O=S(=O)(O)c1ccc2c(N=Nc3c(O)ccc4ccccc34)cccc2c1"
  RECORDED MEASUREMENT: 20
- MOLECULE: "O=C1C=CC(=O)N1c1ccc(Br)cc1Cl"
  RECORDED MEASUREMENT: 100

Tell me measured growth inhibition for CCc1nc2ccc(N=Nc3c(O)ccc4ccccc34)cc2[nH]1 please.
10

###

Test: NCI Yeast Anticancer Drug Screen. Data for the rad50 strain (AID 155);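 also: 0% = growth of vehicle-only cultures of the same strain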
Conditions: S. cerevisiae rad50 strain growth inhibition; at 50.0 µM (retest, dose inferred, filed as 5.0)
Method: Growth inhibition of yeast strains with defined genetic alterations is measured as a screen for potential anti-cancer activity. Selected strains with alterations in DNA damage repair or cell cycle control were exposed to compounds and growth inhibition was measured relative to vehicle treated controls. The strain used in this assay is rad50
About 79,000 compounds went through this panel and 15% of them were active in at least one assay; those are over-represented in the sample as a whole. Active and inactive are the calls of the source. Rule as the data show it: active = growth inhibition above about 70%; inactive = the rest.
Hi there, use one of these labels in your reply, thanks! active, inactive

Would you please look over these solved cases?
- COMPOUND: "c1ccc(N/N=C2\\CC(c3ccccc3)Oc3ccccc32)cc1 (stereo not given)"
  LABEL VALUE: "inactive"
- COMPOUND: "CCCCCCCCCCCCCCCCCN"
  LABEL VALUE: "active"
- COMPOUND: "Nc1ccc2ncc(Nc3ccc(Cl)c(Cl)c3)nc2c1"
  LABEL VALUE: "active"
- COMPOUND: "O=C(CCCN1CCC2(CC1)OC(=O)N(c1ccccc1)C2=O)c1ccccc1"
  LABEL VALUE: "inactive"
- COMPOUND: "CCCC#CCOC(=O)c1cc([N+](=O)[O-])cc([N+](=O)[O-])c1"
  LABEL VALUE: "active"

Lab log entry: CC(C)OC(CCC#N)c1ccc(Cl)cc1 (stereo not given) — outcome as called in the assay?
active

# fetch the recorded call for CC(=O)O/N=C/c1c2ccccc2cc2ccccc12 here
active

Returns: the outcome recorded for COc1cc(C(C)(C)C)cc(OC)c1C(O)(c1c(OC)cc(C(C)(C)C)cc1OC)c1c(OC)cc(C(C)(C)C)cc1OC in this assay.
active

Please let me know the test result on file for [Cl][Pt+2][Cl].[NH-]CC1(C[NH-])CCCCC1 .
active
